System: HCT116 MTAP-/-
test name: Inhibition of cellular proliferation (Cell Titer Glo), HCT116 MTAP-/-
Type: cell-based, human
particulars: Homo sapiens, HCT-116, 96 h, Table 5a, 4 days, read-out: 4 Day Relative Growth Inhibition (MTAP −/−)
pIC50: −log10 of the molar value.
metric name: pIC50

Consider the following illustrative entries.
| mol smiles | pIC50 |
| --- | --- |
| Cn1cc2cc(N3Cc4ccc(OCC(F)F)nc4N(c4ccc5c(ccn5C)c4)C3=O)ccc2n1 | > 7.00 |
| CCOc1ccc2c(n1)N(c1ccc(OC(F)F)cc1)C(=O)N(c1ccc3ncccc3c1)C2 | 6.00 to 7.00 |
| Cn1cc2cc(N3Cc4ccc(OCC(F)F)nc4N(c4ccc5ocnc5c4)C3=O)ccc2n1 | 6.00 to 7.00 |

Return pIC50 measured with HCT116 MTAP-/- given this molecule: [2H]C([2H])([2H])Oc1ccc(N2C(=O)N(c3ccc4nn(C(C)C)cc4c3)Cc3ccc(OCC(F)F)nc32)cc1
> 7.00

Return pIC50 measured with HCT116 MTAP-/- given this molecule: [2H]C([2H])([2H])Oc1ccc(N2C(=O)N(c3ccc4nn(CCC(F)(F)F)cc4c3)Cc3ccc(OCC(F)F)nc32)cc1
6.00 to 7.00

Return pIC50 measured with HCT116 MTAP-/- given this molecule: Cn1cc2cc(N3Cc4ncc(OCC(F)F)nc4N(c4ccc(OC(F)F)cc4)C3=O)ccc2n1
6.00 to 7.00

====

System: HCT116 MTAP-/-
test name: Inhibition of cellular proliferation (Cell Titer Glo), HCT116 MTAP-/-
Type: cell-based, human
particulars: Homo sapiens, HCT-116, 96 h, Table 5a, 4 days, read-out: 4 Day Relative Growth Inhibition (MTAP −/−)
pIC50: −log10 of the molar value.
metric name: pIC50

Query: pIC50; subject: [2H]C([2H])([2H])Oc1ccc(N2C(=O)N(c3ccc4nn(C)cc4c3)Cc3ccc(OC(C)C)nc32)cc1
> 7.00

Query: pIC50; subject: Cn1cc2cc(N3Cc4ccc(OCC(F)F)nc4N(c4ccc5[nH]cc(C#N)c5c4)C3=O)ccc2n1
6.00 to 7.00

Query: pIC50; subject: CCOc1ccc2c(n1)N(c1ccc(OC(F)F)cc1)C(=O)N(c1ccc3nccn3c1)C2
6.00 to 7.00

====

assayed target: MAT2A homodimer (Homo sapiens)
Construct: inferred from the Ni sepharose purification and imidazole elution; made in house; host or cells: SF9 insect cells, recombinant baculovirus (Bac to Bac, pFASTBAC1)
Sequence (P31153 whole entry): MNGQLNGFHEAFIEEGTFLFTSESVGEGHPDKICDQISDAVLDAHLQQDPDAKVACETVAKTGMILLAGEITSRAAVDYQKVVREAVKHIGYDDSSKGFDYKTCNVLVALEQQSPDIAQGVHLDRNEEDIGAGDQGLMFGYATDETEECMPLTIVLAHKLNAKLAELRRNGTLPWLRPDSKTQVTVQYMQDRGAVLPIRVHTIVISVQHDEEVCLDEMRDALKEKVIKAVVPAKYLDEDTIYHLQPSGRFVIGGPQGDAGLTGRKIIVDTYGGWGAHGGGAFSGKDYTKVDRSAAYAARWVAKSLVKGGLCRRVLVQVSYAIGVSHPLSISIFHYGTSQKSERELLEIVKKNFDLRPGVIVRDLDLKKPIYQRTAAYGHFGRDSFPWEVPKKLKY
test name: MAT2A biochemical assay (liberated phosphate, PiColorLock Gold)
particulars: Table 5a; MAT2A biochemical assay; read-out: Enzyme Inhibition
pIC50: −log10 of the molar value.
metric name: pIC50

| mol smiles | metric name | result |
| --- | --- | --- |
| CCOc1ccc2c(n1)N(c1ccc(OC(F)F)cc1)C(=O)N(c1ccc3nccn3c1)C2 | pIC50 | > 7.00 |
| COc1ccc(N2C(=O)N(c3ccc4nccn4c3)Cc3cnc(NCC(F)(F)F)nc32)cc1 | pIC50 | > 7.00 |
| CCN(CC)c1ccc2c(n1)N(c1ccc(OC)cc1)C(=O)N(c1ccc3nn(C)cc3c1)C2 | pIC50 | 5.00 to 6.00 |
| CCOc1ccc2c(n1)N(c1ccc(Cl)cc1)C(=O)N(c1ccc3nn(C)cc3c1)C2 | pIC50 | > 7.00 |
| COc1ccc(N2C(=O)N(c3ccc4[nH]cnc4c3)Cc3cnc(NCC(F)(F)F)nc32)cc1 | pIC50 | > 7.00 |

Return pIC50 measured with MAT2A homodimer (Homo sapiens) given this compound: Cn1cc2cc(N3Cc4cnc(NCC(F)(F)F)nc4N(c4ccc(Br)cc4)C3=O)ccc2n1
> 7.00

Return pIC50 measured with MAT2A homodimer (Homo sapiens) given this compound: CCOc1ccc2c(n1)N(c1ccc(OC)nc1)C(=O)N(c1ccc3nn(C)cc3c1)C2
> 7.00

Return pIC50 measured with MAT2A homodimer (Homo sapiens) given this compound: COc1ccc(N2Cc3cnc(NCC4CC4)nc3N(c3ccncc3)C2=O)cc1
5.00 to 6.00

Return pIC50 measured with MAT2A homodimer (Homo sapiens) given this compound: Cn1cc2cc(N3Cc4cc(F)c(OCC(F)F)cc4N(c4ccc(OC(F)F)cc4)C3=O)ccc2n1
> 7.00

Return pIC50 measured with MAT2A homodimer (Homo sapiens) given this compound: [2H]C([2H])([2H])Oc1ccc(N2C(=O)N(c3ccc4nc(C)n(C)c4c3)Cc3c(C)nc(NCC(F)(F)F)nc32)cc1
> 7.00
